- assay_remarks: Solubility
- Format: physicochemical
- condition_parameters: PBS buffer, aqueous buffer
assay_endpoint: solubility

Please report the recorded solubility for CCN(CC)c1ccc2cc(/C=C/C(=O)c3ccc(C(=O)O)cc3)c(=O)oc2c1 .
> 500 µM

Please report the recorded solubility for CCN(CC)c1ccc2cc(/C=C/C(=O)c3ccccc3O)c(=O)oc2c1 .
< 10 µM

Please report the recorded solubility for CCN(CC)c1ccc2cc(/C=C/C(=O)c3ccc(C(=O)O)cc3Br)c(=O)oc2c1 .
> 500 µM

Please report the recorded solubility for CCN(CC)c1ccc2cc(/C=C(\C)C(=O)c3ccccc3)c(=O)oc2c1 .
< 10 µM

Please report the recorded solubility for CCN(CC)c1ccc2cc(/C=C/C(=O)c3ccccc3)c(=O)oc2c1 .
< 10 µM

---

- assay_remarks: Equilibrium (dissociation constant) of probe and GSH reaction, UV-Vis/fluorescence
- Format: binding
- condition_parameters: deduced from Kd′ and absorption values at 488 nm; read-out: Kd (equilibrium dissociation constant)
assay_endpoint: pKd
Formally, pKd is defined as -log10 of the concentration c, with c in mol/L.

Please report the recorded pKd for CCN(CC)c1ccc2cc(/C=C/C(=O)c3ccc(C(=O)O)cc3Br)c(=O)oc2c1 .
2.80

---

- assay_remarks: Reactivity of probes against β-mercaptoethanol in DMSO
- Assay type: binding
- condition_parameters: β-mercaptoethanol in DMSO; read-out: Kd′ observed dissociation constant
assay_endpoint: Kd

Please report the recorded Kd for CCN(CC)c1ccc2cc(/C=C/C(=O)c3ccccc3O)c(=O)oc2c1 [Compound 3d] .
~2 mM

---

- assay_remarks: Log D in octanol-PBS (pH 7.4) biphasic system
- Assay type: physicochemical
- condition_parameters: octanol-PBS pH 7.4, read-out: Log D (pH = 7.4)
assay_endpoint: logD
Field format: numeric only.

Please report the recorded logD for CCN(CC)c1ccc2cc(/C=C/C(=O)c3ccc(C(=O)O)cc3Br)c(=O)oc2c1 .
0.7

---

- assay_remarks: Equilibrium (dissociation constant) of probe and GSH reaction, UV-Vis/fluorescence
- Format: binding
- condition_parameters: reaction with various concentration of GSH in water/PBS pH 7.4; based on UV-Vis; read-out: Kd′ observed (apparent) dissociation constant
So I've got a bunch of compounds here, and I need their Kd values.
Numbers only; they are read as mM.

Please report the recorded Kd for CCN(CC)c1ccc2cc(/C=C/C(=O)c3ccc(C(=O)O)cc3)c(=O)oc2c1 [Compound 3a] .
1.5

Please report the recorded Kd for CCN(CC)c1ccc2cc(/C=C/C(=O)c3ccc(C(=O)O)cc3Br)c(=O)oc2c1 [TQ Green] .
14.8

---

- assay_remarks: Log D in octanol-PBS (pH 7.4) biphasic system
- Assay type: physicochemical
- condition_parameters: pH 7.4, read-out: Log D, estimated value based on HPLC result
assay_endpoint: logD

Please report the recorded logD for CCN(CC)c1ccc2cc(C(CC(=O)c3ccc(C(=O)O)cc3Br)SCC(NC(=O)CCC(N)C(=O)O)C(=O)NCC(=O)O)c(=O)oc2c1 (stereo not shown) [TQ Green-GSH] .
< -1
